Reference source: PubChem BioAssay (NCI)

test system: SF-539 CNS; assay: NCI tumour cell line growth inhibition, 48 h
Observable: log10 of TGI (log10 of the value in µM)
Hi team, quick reminder: these entries are log10 of TGI (µM).

Sample answers from the record:
CCN1CCN(Cc2ccc3cc(C(=O)Nc4cc(NC(=O)c5ccc6c(c5)OCCO6)ccc4F)ccc3n2)CC1	-0.14
N=c1c2ccccc2nc2oc3ccc(Cl)cc3n12	1.51
C/C(=C\c1ccc2c(c1)OCO2)[N+](=O)[O-]	0.97
OCCCNC(=S)Nc1ccc(-c2nc3ccccc3s2)cc1	1.98
Nc1nn(C(=O)Nc2ccc(Cc3ccccc3)cc2)c2ccccc12	0.73

Task item: So what's the measured log10 of TGI for this one? C=C1CCC2C(C)(CO)C(O)CCC2(C)C1CC(O)C1=CCOC1=O (centres undefined)
Reply: 1.74

Task item: Quick one: log10 of TGI of `C#CCOc1c(OC)cc(C(=O)/C(C)=C/c2cccc(N=[N+]=[N-])c2)cc1OC` ?
Reply: -0.32

Task item: For the compound shown here, `O=C(Nc1cc(Cl)cc(Cl)c1)c1ccc(NC2=C(Cl)C(=O)N(Cc3ccccc3)C2=O)cc1` , give the reported log10 of TGI.
Reply: 1.14

Task item: log10 of TGI for `CCCCN1C(=O)C[C@H]2[C@@H]3CCc4cc(OCCN5CCCC5)ccc4[C@H]3CC[C@]2(C)C1=O` ?
Reply: 1.33

Task item: Need log10 of TGI, item `O=C(NC1CCN(Cc2ccccc2)CC1)c1ccccc1I`
Reply: 1.80

Task item: State the recorded log10 of TGI for this entry: CC1OC2OC3C(OCC(O)C3O)OC(=O)[C@]34CCC(C)(C)CC3C3=CCC5[C@@]6(C)C[C@H](O)[C@H](OC7OC(CO)C(O)C(O)C7OC7OC(COC(=O)CC(C)(O)CC(=O)OC1C(O)C2O)C(O)C(O)C7O)[C@@](C)(CO)C6CC[C@@]5(C)[C@]3(C)CC4 (some centres undefined)
Reply: 1.08

---

system: A498 renal; test: NCI tumour cell line growth inhibition, 48 h
Observable: GI50

O=CNc1ccc2c(c1)Cc1cc([N+](=O)[O-])ccc1-2	2020 nM
COC(=O)C12OCC34C(CC5C(C)=CC(=O)C(O)C5(C)C3C(O)C1O)OC(=O)C(OC(=O)CC(C)C)C24 (centres undefined)	< 57.5 nM
Cc1cc(Cl)ccc1Nc1nc(C(F)(F)F)ccc1C(=O)N/N=C/c1ccc(F)cc1	1480 nM
COc1ccc2c(c1)c(=O)oc1cc(OC/C(=N\O)c3ccc(F)cc3)ccc12	16700 nM
CCOCC[P+](c1ccccc1)(c1ccccc1)c1ccccc1	17600 nM
C(#Cc1ccccc1C#Cc1ccccn1)c1ccc(OCCCCCCOc2ccc(C#Cc3ccccc3C#Cc3ccccn3)cc2)cc1	5930 nM
CCN1CCN(Cc2ccc3cc(C(=O)Nc4cc(NC(=O)c5ccc6c(c5)OCCO6)ccc4F)ccc3n2)CC1	15.9 nM
CN(C)CCOc1cccc(NC2=C(Cl)C(=O)C(Nc3cccc(OCCN(C)C)c3)=C(Cl)C2=O)c1	1640 nM

Alright, here's another compound for you.
Task item: Param readout = GI50; param system = A498 renal; param query = `CC(=O)/C=C/c1ccc(N(C)Cc2ccc(C(C)(C)C)cc2)cc1` ; response: value
Reply: 124000 nM
